For each record, write down the corresponding FACS-Seq fitted mean (log10).
B1: library; a variant is named by its letters at N, in order (parent)
chain: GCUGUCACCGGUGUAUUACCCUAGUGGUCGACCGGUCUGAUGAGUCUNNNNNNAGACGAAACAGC

variants of: B1; test: FACS-Seq fitted mean relative fluorescence mCherry/BFP with ligand (log10 relative fluorescence); ligand: hypoxanthine (xanthine aptamer); ligand concentration (+) FACS-Seq: 5 mM; higher = higher reporter protein expression; conditions: HEK293T, ligand present: yes
Output: the number by itself.

Record summary for "UGACGU" : reported FACS-Seq fitted mean (log10) = 0.226

Record summary for "AAGGUU" : reported FACS-Seq fitted mean (log10) = 0.771

Record summary for "GGUACU" : reported FACS-Seq fitted mean (log10) = 0.258

Record summary for "GUUAGG" : reported FACS-Seq fitted mean (log10) = 0.648

Record summary for "GUGUGA" : reported FACS-Seq fitted mean (log10) = 0.67

Record summary for "CAAGAA" : reported FACS-Seq fitted mean (log10) = 0.45

Record summary for "GGGGUA" : reported FACS-Seq fitted mean (log10) = 0.179

Record summary for "GAACCG" : reported FACS-Seq fitted mean (log10) = 0.296

Record summary for "CAUUAU" : reported FACS-Seq fitted mean (log10) = 0.778

Record summary for "CCAUGG" : reported FACS-Seq fitted mean (log10) = 0.611

Record summary for "GAUGCG" : reported FACS-Seq fitted mean (log10) = 0.566

Record summary for "UGUAUG" : reported FACS-Seq fitted mean (log10) = 0.435

Record summary for "GUCCAG" : reported FACS-Seq fitted mean (log10) = 0.723

Record summary for "AAGGGA" : reported FACS-Seq fitted mean (log10) = 0.545

Record summary for "AACAUG" : reported FACS-Seq fitted mean (log10) = 0.447

Record summary for "AGUUUA" : reported FACS-Seq fitted mean (log10) = 0.651

Record summary for "CGAGUU" : reported FACS-Seq fitted mean (log10) = 0.833

Record summary for "AGUUAA" : reported FACS-Seq fitted mean (log10) = 0.802

Record summary for "AUAGGA" : reported FACS-Seq fitted mean (log10) = 0.529

Record summary for "AUAUGU" : reported FACS-Seq fitted mean (log10) = 0.511

Record summary for "GAUGGA" : reported FACS-Seq fitted mean (log10) = 0.698

Record summary for "CUAGGG" : reported FACS-Seq fitted mean (log10) = 0.294

Measured values drawn from the supplement of paper PMC6757056 for this set.
